The entries below are paired with their reported pull-down binding Z-score.
- Tested on: TO-3-N3-2 (biotin conjugate)
- assay: pull-down binding Z-score (relative to library population); higher = stronger binding
- conditionInfo: RNA library: Library-2
Write the number on its own, no unit after it.

Known results for sequences:
[[record]]
constructsequence = "GUCUCGCACCCGCGAGAU [IAV_invivo_PB2_1_Motif_2+IAV_invivo_PB2_1_Motif_2]"
testedsystem = "TO-3-N3-2 (biotin conjugate)"
valuekind = "pull-down binding Z-score"
measurement = -0.362

[[record]]
constructsequence = "CAAAGACCAGAACUUAAUGGUCUCUG [hsa-mir-4490]"
testedsystem = "TO-3-N3-2 (biotin conjugate)"
valuekind = "pull-down binding Z-score"
measurement = -0.671

[[record]]
constructsequence = "UGAAAGGUUUUUUCUCUCA [hsa-mir-4797]"
testedsystem = "TO-3-N3-2 (biotin conjugate)"
valuekind = "pull-down binding Z-score"
measurement = -0.248

[[record]]
constructsequence = "UGGUUUCCAACCCACUAAUGGUGUUGGUUACCA"
testedsystem = "TO-3-N3-2 (biotin conjugate)"
valuekind = "pull-down binding Z-score"
measurement = -0.442


Requested read-out: pull-down binding Z-score. Entry: GUGGCCUUGGACAAGCCUCUUGGUUAC [hsa-mir-4672]
-0.502

Can you handle CUCUGAUGUAAUUAGGU [hsa-mir-563] next?
-0.321

Try the sequence CCUCUGACUAAGGGG [IAV_invivo_M1_M2_7_Motif_4+IAV_invivo_M1_M2_7_Motif_4]
-0.414

Now this one: UAUAACUUGAAGAAUUCAAAUAGUCAUG [hsa-mir-3146]
-0.34

And GCAUUUUAUCUAAGAUACACACAAAGCAAAUGC [hsa-mir-4439] ?
0.179
